- Test system: HEK-293T
- measurementProtocol: Multiplex assay against HEK293T
- Assay type: toxicity, cell-based
- measurementSetup: human, 12 h, 10 µM, compound concentration 10 uM, replicate 2
What Population Apoptotic (%) was measured for each of the following?
Unit % implied. Number only.

Requested read-out: Population Apoptotic (%). Entry: CN(C)C(=O)N[C@H]1CC[C@H](CCN2CCN(c3cccc(Cl)c3Cl)CC2)CC1.Cl [CARIPRAZINE HYDROCHLORIDE]
83

// next record COc1ncc(-c2ccc3nccc(-c4ccnnc4)c3c2)cc1NS(=O)(=O)c1ccc(F)cc1F
34

# repeat for C[C@@H](NCCCc1cccc(C(F)(F)F)c1)c1cccc2ccccc12.Cl [CINACALCET HYDROCHLORIDE]
80

Further, for CN1CCC[C@@H]1CCO[C@](C)(c1ccccc1)c1ccc(Cl)cc1.O=C(O)/C=C/C(=O)O [CLEMASTINE FUMARATE] ?
85

----------
Could you please report measured Population Mitotic Cells (%) for the items listed next?
- Test system: HEK-293T
- measurementProtocol: Multiplex assay against HEK293T
- Type: toxicity, cell-based
- measurementSetup: human, 48 h, 1 µM, compound concentration 1 uM, replicate 2
Give the figure together with its unit, number first.

So what does the record say about Population Mitotic Cells (%) for COc1cc(-n2cnc3cc(-c4ccc(Cl)cc4)sc3c2=O)ccc1OCCN1CCCC1 ?
79%

Same read-out for Cc1csc2c(N[C@@H](C)CN3CCN(S(=O)(=O)c4ccc(Cl)c(Cl)c4)CC3)ncnc12 ?
70%

Please give the result for Cc1nc(-c2ccc(-c3ccc(C(=O)N4CCc5cc6c(cc54)C4(CCN(C)CC4)CO6)cc3)c(C)c2)no1 too.
75%

Another: Cl.N#Cc1ccc2[nH]cc(CCCCN3CCN(c4ccc5oc(C(N)=O)cc5c4)CC3)c2c1 [VILAZODONE HYDROCHLORIDE]
66%

What would you report for CC[C@H](C)C(=O)O[C@H]1C[C@@H](C)C=C2C=C[C@H](C)[C@H](CC[C@@H]3C[C@@H](O)CC(=O)O3)[C@H]21 ?
96%

What do you get for CNc1nc(NCc2ccc(NS(C)(=O)=O)cc2Cl)cc(-c2ccccn2)n1 ?
85%

Quick one: CN(C)C(=O)N[C@H]1CC[C@H](CCN2CCN(c3cccc(Cl)c3Cl)CC2)CC1.Cl [CARIPRAZINE HYDROCHLORIDE]
89%

Ok, now Cc1c(-c2ccc(O)cc2)n(Cc2ccc(OCCN3CCCCCC3)cc2)c2ccc(O)cc12
87%

Record: COc1cccc([C@@H](C)NCCCc2ccccc2Cl)c1.Cl [TECALCET HYDROCHLORIDE]
76%

Record: OC1(c2ccc(Cl)cc2)CCN(Cc2c[nH]c3ccccc23)CC1
92%

Next record, please: C[C@@H](NCCCc1cccc(C(F)(F)F)c1)c1cccc2ccccc12.Cl [CINACALCET HYDROCHLORIDE]
78%

Subsequent entry: CN1CCCC(n2nc(Cc3ccc(Cl)cc3)c3ccccc3c2=O)CC1.Cl (stereo unspecified) [AZELASTINE HYDROCHLORIDE]
52%

Okay, and C=CC(=O)Nc1ccc2ncnc(Nc3ccc(OCc4cccc(F)c4)c(Cl)c3)c2c1.Cc1ccc(S(=O)(=O)O)cc1 ?
96%

Next compound up: CN(C)C(=O)/C(C#N)=C/c1ccc(-c2nc3cnc4[nH]ccc4c3n2C2CCCCC2)o1
84%

And what about the compound COc1ncc(-c2ccc3nccc(-c4ccnnc4)c3c2)cc1NS(=O)(=O)c1ccc(F)cc1F ?
55%

Another compound: CN1CCN(CCOc2cc(OC3CCOCC3)c3c(Nc4c(Cl)ccc5c4OCO5)ncnc3c2)CC1
73%

----------
- Test system: U2OS
- measurementProtocol: Multiplex assay against U2OS
- Assay type: toxicity, cell-based
- measurementSetup: human, 48 h, 10 µM, compound concentration 10 uM, replicate 2
I'd appreciate it if you could supply Population Apoptotic (%) values for the items below.
Express it in %; write the number only.

// lookup Population Apoptotic (%) for OC1(c2ccc(Cl)cc2)CCN(Cc2c[nH]c3ccccc23)CC1
70

Now try Cc1nc(-c2ccc(-c3ccc(C(=O)N4CCc5cc6c(cc54)C4(CCN(C)CC4)CO6)cc3)c(C)c2)no1 [SB-224289] .
88

Also, Cn1cc(-c2[nH]c3cc(NC(=O)[C@H](N)C4CCCCC4)cc4c3c2C=NNC4=O)cn1 please.
100

One more compound: C=CC(=O)Nc1cccc(C(=O)Nc2ccc(Nc3cc(-c4[nH]c(SC)nc4C)ccn3)cc2)c1
11

Then CC(C)NCC(O)COc1ccc(CCOCC2CC2)cc1.Cl (configuration not stated) [BETAXOLOL HYDROCHLORIDE] ?
54

Again, but for O=C1NCN(c2ccccc2)C12CCN(CCCOc1ccc(F)cc1)CC2 [SPIRAMIDE]
16

Subsequent entry: CN(C)CC#Cc1ccc(OCCCc2sc(N3CCc4cccc(C(=O)Nc5nc6ccccc6s5)c4C3)nc2C(=O)O)c(F)c1 [A-1155463]
81

Quick one: Cl.N#Cc1ccc2[nH]cc(CCCCN3CCN(c4ccc5oc(C(N)=O)cc5c4)CC3)c2c1 [VILAZODONE HYDROCHLORIDE]
89

Next compound up: Cc1csc2c(N[C@@H](C)CN3CCN(S(=O)(=O)c4ccc(Cl)c(Cl)c4)CC3)ncnc12
92

Then Cc1c(-c2ccc(O)cc2)n(Cc2ccc(OCCN3CCCCCC3)cc2)c2ccc(O)cc12 [BAZEDOXIFENE] ?
100

Same lookup for CN1CCN(c2ccc(OC(F)(F)F)c(Nc3ncc4c(n3)-c3c(c(C(N)=O)nn3CCO)CC4)c2)CC1 [ONVANSERTIB] , please.
57

Similarly, C[C@@H](NCCCc1cccc(C(F)(F)F)c1)c1cccc2ccccc12.Cl [CINACALCET HYDROCHLORIDE] ?
91

Now try CC(C)(O)CNc1ncc(-c2ccnc(Nc3ccnc(Cl)c3)n2)c(CC2CC2)n1 .
61

Also need CNCc1ccccc1-c1csc([C@H](C)Nc2nc(C)nc3cc(OC)c(OC)cc23)c1 [BAY-294] , thanks.
70

Would you mind doing CNc1nc(NCc2ccc(NS(C)(=O)=O)cc2Cl)cc(-c2ccccn2)n1 as well?
44

Cool, now c1cn2cc(-c3ccc4cn[nH]c4c3)nc(Nc3ccc(N4CCOCC4)cc3)c2n1 [ENTOSPLETINIB]
82

What about COc1cccc([C@@H](C)NCCCc2ccccc2Cl)c1.Cl [TECALCET HYDROCHLORIDE] ?
54

Request: CC[C@H](C)C(=O)O[C@H]1C[C@@H](C)C=C2C=C[C@H](C)[C@H](CC[C@@H]3C[C@@H](O)CC(=O)O3)[C@H]21 [LOVASTATIN]
33

# iterate: COc1ncc(-c2ccc3nccc(-c4ccnnc4)c3c2)cc1NS(=O)(=O)c1ccc(F)cc1F [OMIPALISIB]
82

# repeat for COc1cc2nccc(Oc3ccc(NC(=O)Nc4cc(C)on4)c(Cl)c3)c2cc1OC.O
87

What about this compound? COc1cc(-n2cnc3cc(-c4ccc(Cl)cc4)sc3c2=O)ccc1OCCN1CCCC1
53

Can you check CCn1c(=O)c(-c2ccc(Cl)cc2Cl)cc2cnc(Nc3ccc(N4CCNCC4)c(F)c3)nc21 next?
100

Repeat with C[C@@]1(C(=O)Nc2ccc(F)nc2)CCCN1c1nc(Nc2cc(C3CC3)n[nH]2)c2cccn2n1 [BMS-754807]
66

What about this compound? CCOCCn1cc(C(=O)Nc2ccc(-n3nc(-c4cccnc4)cc3C(F)(F)F)cn2)ccc1=O [BI 1935]
52

Okay, and Cc1[nH]c(/C=C2\C(=O)Nc3ccc(S(=O)(=O)N(C)c4cccc(Cl)c4)cc32)c(C)c1C(=O)N1CCN(C)CC1 ?
100

Here is the next compound: NC(=O)Nc1cc(-c2cccc(F)c2)sc1C(=O)N[C@H]1CCCNC1 [AZD-7762]
100

How about this compound: Cc1cc(C)cc(-c2cnc3cc(Cl)c(-c4cccc(O)c4)cc3c2OCCCN)c1
96

Next compound: CN(C)C(=O)N[C@H]1CC[C@H](CCN2CCN(c3cccc(Cl)c3Cl)CC2)CC1.Cl [CARIPRAZINE HYDROCHLORIDE]
70

Let us now turn to CN1CCC[C@@H]1CCO[C@](C)(c1ccccc1)c1ccc(Cl)cc1.O=C(O)/C=C/C(=O)O [CLEMASTINE FUMARATE]
54

Next compound up: CN1CCN(CCOc2cc(OC3CCOCC3)c3c(Nc4c(Cl)ccc5c4OCO5)ncnc3c2)CC1 [SARACATINIB]
73

Now the compound CN1CCCC(n2nc(Cc3ccc(Cl)cc3)c3ccccc3c2=O)CC1.Cl (configuration not stated) [AZELASTINE HYDROCHLORIDE]
93

Field entry: CN(C)C(=O)/C(C#N)=C/c1ccc(-c2nc3cnc4[nH]ccc4c3n2C2CCCCC2)o1
63
